- System: NOMO1
- ASSAY NAME: cell viability relative to DMSO control; higher = less cytotoxic
- ASSAY SETUP: RPMI 5 mM glucose + 10% FBS; 48 h; 0.19 µM

COMPOUND: O=C(NNC(=O)c1ccc(CN[S+](=O)([O-])c2ccc(F)c(Cl)c2)cc1)c1ccccc1
SUBJECT OF TEST: NOMO1
UNIT SYMBOL: %
cell viability: 99.5
--
COMPOUND: OC(COC1=C2C(=O)\C=C(/OC2=CC=C1)C([O-])=O)COC3=C4C(=O)\C=C(/OC4=CC=C3)C([O-])=O
SUBJECT OF TEST: NOMO1
UNIT SYMBOL: %
cell viability: 74.5
--
COMPOUND: CN[S+](=O)([O-])CCc1ccc2[nH]cc(C3CCN(C)CC3)c2c1
SUBJECT OF TEST: NOMO1
UNIT SYMBOL: %
cell viability: 89.5
--
COMPOUND: COc1cc2ncnc(Nc3cccc(Br)c3)c2cc1OC
SUBJECT OF TEST: NOMO1
UNIT SYMBOL: %
cell viability: 108
--
COMPOUND: COC1=CC2=C(C=C1OC)[C@H]3[C@@H](CO2)OC4=C(C=CC5=C4\C=C/C(C)(C)O5)C3=O
SUBJECT OF TEST: NOMO1
UNIT SYMBOL: %
cell viability: 93.6
--
COMPOUND: O=C1CCc2ccc(OCCCCN3CCN(c4cccc(Cl)c4Cl)CC3)cc2N1
SUBJECT OF TEST: NOMO1
UNIT SYMBOL: %
cell viability: 89.5
--
COMPOUND: O=C1NC(O)CCN1[C@@H]1O[C@H](CO)[C@@H](O)[C@H]1O (stereo partly specified)
SUBJECT OF TEST: NOMO1
UNIT SYMBOL: %
cell viability: 110
--
COMPOUND: Cc1cc(O)c2c(c1)C(=O)c1cc(O)cc(O)c1C2=O
SUBJECT OF TEST: NOMO1
UNIT SYMBOL: %
cell viability: 88
--
COMPOUND: CO[C@H]1C[C@@H]2CC[C@@H](C)[C@@](O)(O2)C(=O)C(=O)N2CCCC[C@H]2C(=O)O[C@H]([C@H](C)C[C@@H]2CC[C@@H](OCCO)[C@H](OC)C2)CC(=O)[C@H](C)/C=C(/C)[C@@H](O)[C@@H](OC)C(=O)[C@H](C)C[C@H](C)\C=C/C=C\C=C/1C
SUBJECT OF TEST: NOMO1
UNIT SYMBOL: %
cell viability: 94.2
--
COMPOUND: COC1=CC=C(C=C1)C2CC(=N/N2C3=CC=C(C=C3)[S+](N)([O-])=O)\C4=CC=CC=C4 (stereo unspecified)
SUBJECT OF TEST: NOMO1
UNIT SYMBOL: %
cell viability: 98.3
--
COMPOUND: O=C(CCCCCCC(=O)Nc1ccccc1)NO
SUBJECT OF TEST: NOMO1
UNIT SYMBOL: %
cell viability: 105
